In this section, each of the molecules is paired with its reported IC50.
- Test system: Jurkat cell line
- Procedure text: leukemia cell growth inhibition, MTT
- Format: cell-based
- Recorded conditions: Homo sapiens, 72 h

INSERT INTO assay_data (molecule, observed_result) VALUES
  ('CCC(C)CNC(=O)C1C[C@@]2(C)C(CC[C@]3(C)C2CC=C2C4CC(C)(C)CC[C@]4(C(=O)OC)CC[C@]23C)C(C)(C)C1=O (stereo partly drawn) [BS-OA-008]', '> 16 µg/mL');

# lookup: IC50 of CN(C)CCCNC(=O)C1C[C@@]2(C)C(CC[C@]3(C)C2CC=C2C4CC(C)(C)CC[C@]4(C(=O)O)CC[C@]23C)C(C)(C)C1=O (stereo partly drawn) [BS-OA-109]
> 16 µg/mL

Entry under review: COC(=O)[C@]12CCC(C)(C)C[C@H]1C1=CC[C@@H]3[C@@]4(C)CC(C(=O)NCC5CC5)C(=O)C(C)(C)[C@@H]4CC[C@@]3(C)[C@]1(C)CC2 (stereo partly drawn) [BS-OA-048] . Reported IC50?
> 16 µg/mL

###

- System: A549 cell line
- Procedure text: solid tumor cell growth inhibition, MTT
- Type: cell-based
- Recorded conditions: Homo sapiens; A549, 16 μg/mL compound, 72 h; read-out: IR (cell proliferation inhibition rate)
Measured inhibition at 16 µg/mL accompanies every entry in the list below.
Provide the reading as a plain figure in %.

INSERT INTO results (molecule, observed_result) VALUES
  ('COC(=O)[C@]12CCC(C)(C)C[C@H]1C1=CC[C@@H]3[C@@]4(C)CC(C(=O)NCC5CC5)C(=O)C(C)(C)[C@@H]4CC[C@@]3(C)[C@]1(C)CC2 (stereo partly drawn)', -3.8),
  ('COC(=O)[C@]12CCC(C)(C)CC1C1=CCC3[C@@]4(C)CC(C(=O)NCCN5CCCC5)C(=O)C(C)(C)C4CC[C@@]3(C)[C@]1(C)CC2 (stereo partly drawn)', 96.8),
  ('CCN(CC)CCNC(=O)C1C[C@@]2(C)C(CC[C@]3(C)C2CC=C2C4CC(C)(C)CC[C@]4(C(=O)OC)CC[C@]23C)C(C)(C)C1=O (stereo partly drawn)', 97.4),
  ('CN1CCN(CCCNC(=O)C2C[C@]3(C)[C@H]4CC=C5[C@@H]6CC(C)(C)CC[C@]6(C(=O)O)CC[C@@]5(C)[C@]4(C)CC[C@H]3C(C)(C)C2=O)CC1 (stereo partly drawn)', 4),
  ('COC(=O)[C@]12CCC(C)(C)C[C@H]1C1=CC[C@@H]3[C@@]4(C)CC(C(=O)NCCN5CCCCC5)C(=O)C(C)(C)[C@@H]4CC[C@@]3(C)[C@]1(C)CC2 (stereo partly drawn)', 92),
  ('COC(=O)[C@]12CCC(C)(C)CC1C1=CCC3[C@@]4(C)CC(C(=O)NCCC(C)C)C(=O)C(C)(C)C4CC[C@@]3(C)[C@]1(C)CC2 (stereo partly drawn)', -6.3),
  ('CCOCCNC(=O)C1C[C@@]2(C)C(CC[C@]3(C)C2CC=C2C4CC(C)(C)CC[C@]4(C(=O)OC)CC[C@]23C)C(C)(C)C1=O (stereo partly drawn)', 2),
  ('COCCCNC(=O)C1C[C@]2(C)[C@H]3CC=C4[C@@H]5CC(C)(C)CC[C@]5(C(=O)OC)CC[C@@]4(C)[C@]3(C)CC[C@H]2C(C)(C)C1=O (stereo partly drawn)', 3.1);

Please look up its inhibition at 16 µg/mL: CC1(C)CC[C@]2(C(=O)O)CC[C@]3(C)C(=CC[C@@H]4[C@@]5(C)CC[C@H](O)C(C)(C)[C@@H]5CC[C@]43C)[C@@H]2C1
5

###

- System: Hep G2 cell line
- Procedure text: solid tumor cell growth inhibition, MTT
- Type: cell-based, human
- Recorded conditions: Homo sapiens, HepG2, 72 h, Hep G2, 16 μg/mL compound, 72 h; read-out: IR (cell proliferation inhibition rate)
Quantity name: inhibition at 16 µg/mL

# count of solved cases: 2
INSERT INTO results (molecule, target_under_test, quantity_name, observed_result) VALUES
  ('COC(=O)[C@]12CCC(C)(C)CC1C1=CCC3[C@@]4(C)CC(C(=O)NCCN5CCCC5)C(=O)C(C)(C)C4CC[C@@]3(C)[C@]1(C)CC2 (stereo partly drawn) [BS-OA-005]', 'Hep G2 cell line', 'inhibition at 16 µg/mL', '> 96%'),
  ('COC(=O)[C@]12CCC(C)(C)CC1C1=CCC3[C@@]4(C)CC(C(=O)NCCCN5CCCC5)C(=O)C(C)(C)C4CC[C@@]3(C)[C@]1(C)CC2 (stereo partly drawn) [BS-OA-016]', 'Hep G2 cell line', 'inhibition at 16 µg/mL', '> 96%');

Query (molecule): COC(=O)[C@]12CCC(C)(C)CC1C1=CCC3[C@@]4(C)CC(C(=O)NCCCN(C)C)C(=O)C(C)(C)C4CC[C@@]3(C)[C@]1(C)CC2 (stereo partly drawn) [BS-OA-042] ; field requested: inhibition at 16 µg/mL
> 96%

###

- Tested on: A549 cell line
- Procedure text: solid tumor cell growth inhibition, MTT
- Type: cell-based
- Recorded conditions: Homo sapiens; A549, 16 μg/mL compound, 72 h; read-out: IR (cell proliferation inhibition rate)
Quantity name: inhibition at 16 µg/mL (%)
Kindly provide the numeric value in % only, without the unit symbol.

INSERT INTO results (molecule, quantity_name, unit_label, observed_result) VALUES
  ('COC(=O)[C@]12CCC(C)(C)CC1C1=CCC3[C@@]4(C)CC(C(=O)NCCc5cccnc5)C(=O)C(C)(C)C4CC[C@@]3(C)[C@]1(C)CC2 (stereo partly drawn)', 'inhibition at 16 µg/mL', '%', 45.6),
  ('COC(=O)[C@]12CCC(C)(C)CC1C1=CCC3[C@@]4(C)CC(C(=O)NCCc5ccccn5)C(=O)C(C)(C)C4CC[C@@]3(C)[C@]1(C)CC2 (stereo partly drawn)', 'inhibition at 16 µg/mL', '%', -6.6),
  ('COC(=O)[C@]12CCC(C)(C)CC1C1=CCC3[C@@]4(C)CC(C(=O)NCCCN5CCN(C)CC5)C(=O)C(C)(C)C4CC[C@@]3(C)[C@]1(C)CC2 (stereo partly drawn)', 'inhibition at 16 µg/mL', '%', 97.6),
  ('CCC(C)CNC(=O)C1C[C@@]2(C)C(CC[C@]3(C)C2CC=C2C4CC(C)(C)CC[C@]4(C(=O)OC)CC[C@]23C)C(C)(C)C1=O (stereo partly drawn)', 'inhibition at 16 µg/mL', '%', 3.4),
  ('CC1(C)CC[C@]2(C(=O)O)CC[C@]3(C)C(=CC[C@@H]4[C@@]5(C)CC(C(=O)NCCN6CCCC6)C(=O)C(C)(C)[C@@H]5CC[C@]43C)[C@@H]2C1 (stereo partly drawn)', 'inhibition at 16 µg/mL', '%', 24),
  ('COC(=O)[C@]12CCC(C)(C)CC1C1=CCC3[C@@]4(C)CC(C(=O)NCCCN5CCOCC5)C(=O)C(C)(C)C4CC[C@@]3(C)[C@]1(C)CC2 (stereo partly drawn)', 'inhibition at 16 µg/mL', '%', 82);

Which inhibition at 16 µg/mL is listed for COC(=O)[C@]12CCC(C)(C)CC1C1=CCC3[C@@]4(C)CC(C(=O)NCCCN5CCCC5)C(=O)C(C)(C)C4CC[C@@]3(C)[C@]1(C)CC2 (stereo partly drawn) ?
96.8

Given CCN(CC)CCCNC(=O)C1C[C@]2(C)[C@H]3CC=C4[C@@H]5CC(C)(C)CC[C@]5(C(=O)OC)CC[C@@]4(C)[C@]3(C)CC[C@H]2C(C)(C)C1=O (stereo partly drawn) , state its recorded inhibition at 16 µg/mL.
97.3

Entry under review: CN(C)CCCNC(=O)C1C[C@@]2(C)C(CC[C@]3(C)C2CC=C2C4CC(C)(C)CC[C@]4(C(=O)O)CC[C@]23C)C(C)(C)C1=O (stereo partly drawn) . Reported inhibition at 16 µg/mL?
7.5
